assayOverview: Oral bioavailability in rat at 5 mg/kg by LC-MS-MS analysis
Type: ADME, organism-based
testConditions: in vivo
Use 4% as the dividing line for bioavailability, with the line itself on the true (1) side and lower values as false (0).

Ask | Determine whether this compound has bioavailability no lower than 4%: "N[C@H]1CN[C@@](CCCCB(O)O)(C(=O)O)C1"
Reply | false (0)

Ask | Determine whether this compound has bioavailability no lower than 4%: "N[C@@H](CCCCB(O)O)C(=O)O"
Reply | true (1)

Ask | Determine whether this compound has bioavailability no lower than 4%: "CC(C)[C@H](N)C(=O)N1CC[C@@H](CCCB(O)O)[C@H]1C(=O)O"
Reply | true (1)

Ask | Determine whether this compound has bioavailability no lower than 4%: "CC(C)[C@H](N)C(=O)N(C)[C@H]1CN[C@@](CCCCB(O)O)(C(=O)O)C1"
Reply | true (1)

Ask | Determine whether this compound has bioavailability no lower than 4%: "CC(C)[C@H](N)C(=O)N[C@H]1CN[C@@](CCCCB(O)O)(C(=O)O)C1"
Reply | false (0)

Ask | Determine whether this compound has bioavailability no lower than 4%: "CC(C)[C@H](N)C(=O)N1C[C@H](N)C[C@]1(CCCCB(O)O)C(=O)O"
Reply | false (0)

Ask | Determine whether this compound has bioavailability no lower than 4%: "NC[C@@H](CCCB(O)O)[C@H](N)C(=O)O"
Reply | true (1)

Ask | Determine whether this compound has bioavailability no lower than 4%: "O=C(O)[C@H]1NCC[C@H]1CCCB(O)O"
Reply | true (1)

Ask | Determine whether this compound has bioavailability no lower than 4%: "CC(C)(C)[C@H](N)C(=O)N[C@H]1CN[C@@](CCCCB(O)O)(C(=O)O)C1"
Reply | true (1)

Ask | Determine whether this compound has bioavailability no lower than 4%: "O=C(N[C@H]1CN[C@@](CCCCB(O)O)(C(=O)O)C1)[C@@H]1CCCN1"
Reply | false (0)

Ask | Determine whether this compound has bioavailability no lower than 4%: "NCC(=O)N[C@H]1CN[C@@](CCCCB(O)O)(C(=O)O)C1"
Reply | false (0)

---

assayOverview: Prodrug conversion in rat assessed as oral bioavailability of (2R,4R)-4-amino-2-(4-boronobutyl)pyrrolidine-2-carboxylic acid at 5 mg/kg by LC-MS-MS analysis
Type: ADME, organism-based
testConditions: in vivo
hey, just use TRUE if measured F is less than 30%, otherwise FALSE

Ask | In the record for "O=C(N[C@H]1CN[C@@](CCCCB(O)O)(C(=O)O)C1)[C@@H]1CCCN1" , is F less than 30%?
Reply | TRUE

Ask | In the record for CCC(C)[C@H](N)C(=O)N[C@H]1CN[C@@](CCCCB(O)O)(C(=O)O)C1 (single isomer, unassigned) , is F less than 30%?
Reply | FALSE

Ask | In the record for "CC(C)[C@H](N)C(=O)N[C@H]1CN[C@@](CCCCB(O)O)(C(=O)O)C1" , is F less than 30%?
Reply | FALSE

Ask | In the record for "C[C@H](N)C(=O)N[C@H]1CN[C@@](CCCCB(O)O)(C(=O)O)C1" , is F less than 30%?
Reply | FALSE

Ask | In the record for "CC(C)(C)[C@H](N)C(=O)N[C@H]1CN[C@@](CCCCB(O)O)(C(=O)O)C1" , is F less than 30%?
Reply | TRUE

Ask | In the record for "NCC(=O)N[C@H]1CN[C@@](CCCCB(O)O)(C(=O)O)C1" , is F less than 30%?
Reply | FALSE

Source listed as ChEMBL document CHEMBL6074669.
